Hi! I'm sharing some MIC results obtained with Escherichia coli.
Please give a number only; it is taken to be in µM.

smiles=CC(C)C[C@H](NC(=O)[C@H](CCCN=C(N)N)NC(=O)[C@H](Cc1c[nH]c2ccccc12)NC(=O)[C@H](CCCN=C(N)N)NC(=O)[C@@H](NC(=O)[C@H](CCCCN)NC(=O)[C@H](Cc1c[nH]c2ccccc12)NC(=O)[C@H](CCCN=C(N)N)NC(=O)[C@H](CC(C)C)NC(=O)[C@H](CCCN=C(N)N)NC(=O)[C@@H](N)Cc1c[nH]c2ccccc12)[C@@H](C)O)C(=O)N[C@@H](CCCCN)C(N)=O measured_value=2.83

Qu. If you can, please state the reported MIC value of CC[C@H](C)[C@H](NC(=O)[C@@H](NC(=O)[C@H](CCCN=C(N)N)NC(=O)[C@@H]1CCCN1C(=O)[C@H](CCCCN)NC(=O)[C@H](CCCCN)NC(=O)[C@H](Cc1ccccc1)NC(=O)[C@H](Cc1ccccc1)NC(=O)[C@H](CCCCN)NC(=O)[C@H](CCCCN)NC(=O)[C@H](C)N)C(C)C)C(=O)NCC(=O)N[C@H](C(=O)N[C@@H](CO)C(=O)N[C@H](C(=O)N1CCC[C@H]1C(=O)N[C@@H](Cc1ccccc1)C(=O)O)[C@@H](C)CC)C(C)C .
Ans. 2.04

###

Test system: Staphylococcus aureus ATCC 29213
# Lookup of reported MIC keyed by entry
Please give a number only; it is taken to be in µM.

smiles=CC[C@H](C)[C@H](NC(=O)[C@@H](NC(=O)[C@H](Cc1c[nH]c2ccccc12)NC(=O)[C@@H](NC(=O)[C@@H](N)CCCN=C(N)N)[C@@H](C)CC)C(C)C)C(=O)N[C@@H](Cc1c[nH]c2ccccc12)C(=O)N[C@@H](CCCN=C(N)N)C(=O)N[C@@H](CCCN=C(N)N)C(N)=O unit_text=µM measured_value=6.75
smiles=CC(C)C[C@H](NC(=O)[C@H](C)N)C(=O)N[C@@H](CCCCN)C(=O)N[C@@H](Cc1ccc(O)cc1)C(=O)N[C@@H](CCCN=C(N)N)C(=O)N[C@@H](CC(C)C)C(=O)N[C@@H](Cc1ccccc1)C(=O)N[C@@H](CCCCN)C(=O)N[C@@H](CCCCN)C(=O)N[C@@H](CC(C)C)C(=O)N[C@@H](CCCCN)C(=O)N[C@@H](CCCCN)C(=O)N[C@@H](Cc1ccccc1)C(=O)O unit_text=µM measured_value=0.594
smiles=CC[C@H](C)[C@H](NC(=O)[C@H](CCSC)NC(=O)[C@H](C)NC(=O)[C@@H]1CCCN1C(=O)[C@@H](NC(=O)[C@@H](NC(=O)[C@H](CCCCN)NC(=O)[C@@H](NC(=O)[C@H](CC(C)C)NC(=O)CNC(=O)CNC(=O)[C@H](CC(C)C)NC(=O)[C@@H](N)Cc1ccccc1)[C@@H](C)CC)[C@@H](C)CC)C(C)C)C(=O)N[C@@H](CS)C(=O)N[C@@H](C)C(=O)N[C@H](C(=O)N[C@H](C(=O)N[C@@H](CCCCN)C(=O)N[C@@H](CCCCN)C(=O)O)[C@@H](C)O)C(C)C unit_text=µM measured_value=63.9
smiles=CC[C@H](C)[C@H](NC(=O)[C@H](CCCCN)NC(=O)[C@H](CCCCN)NC(=O)CNC(=O)[C@@H](NC(=O)CNC(=O)[C@H](CC(C)C)NC(=O)[C@@H](NC(=O)CNC(=O)[C@H](CO)NC(=O)[C@H](CC(C)C)NC(=O)[C@H](CC(C)C)NC(=O)CN)C(C)C)C(C)C)C(=O)N[C@H](C(=O)N[C@H]1CSSC[C@@H](C(=O)O)NC(=O)[C@H](CC(C)C)NC(=O)CNC(=O)[C@H](CO)NC(=O)[C@H](CC(C)C)NC(=O)CNC1=O)C(C)C unit_text=µM measured_value=11.5
smiles=CC(C)[C@H](NC(=O)[C@H](Cc1c[nH]c2ccccc12)NC(=O)[C@H](Cc1c[nH]c2ccccc12)NC(=O)[C@@H](N)CCCN=C(N)N)C(=O)N[C@@H](C)C(=O)N[C@@H](Cc1c[nH]c2ccccc12)C(=O)N[C@@H](CCCN=C(N)N)C(=O)N[C@@H](CC(N)=O)C(=O)N[C@@H](CCCN=C(N)N)C(=O)O unit_text=µM measured_value=94
smiles=CC(C)C[C@H](NC(=O)[C@H](CC(C)C)NC(=O)[C@H](CCCCN)NC(=O)[C@H](CCCCN)NC(=O)[C@H](CC(C)C)NC(=O)[C@H](CC(C)C)NC(=O)[C@H](CCCCN)NC(=O)[C@H](CC(C)C)NC(=O)[C@H](CC(C)C)NC(=O)[C@H](CCCCN)NC(=O)[C@H](CCCCN)NC(=O)[C@@H](N)CC(C)C)C(=O)N[C@@H](CCCCN)C(=O)N[C@@H](C)C(=O)N[C@@H](C)C(=O)NCC(=O)O unit_text=µM measured_value=10
smiles=NC(=O)[C@H](Cc1c[nH]c2ccccc12)NC(=O)[C@H](CCCN=C(N)N)NC(=O)[C@H](CCCN=C(N)N)NC(=O)[C@H](Cc1c[nH]c2ccccc12)NC(=O)[C@H](Cc1c[nH]c2ccccc12)NC(=O)[C@H](Cc1c[nH]c2ccccc12)NC(=O)[C@H](CCCN=C(N)N)NC(=O)[C@H](CCCN=C(N)N)NC(=O)[C@@H](N)Cc1c[nH]c2ccccc12 unit_text=µM measured_value=4
smiles=C[C@H](N)C(=O)N[C@@H](CCCN=C(N)N)C(=O)N[C@@H](CCCN=C(N)N)C(=O)N[C@@H](C)C(=O)N[C@@H](CCCN=C(N)N)C(=O)N[C@@H](CCCN=C(N)N)C(=O)N[C@@H](CCCN=C(N)N)C(=O)N[C@@H](Cc1c[nH]c2ccccc12)C(=O)N[C@@H](CCCN=C(N)N)C(=O)N[C@@H](CCCN=C(N)N)C(=O)N[C@@H](CCCN=C(N)N)C(=O)N[C@@H](C)C(=O)N[C@@H](CCCN=C(N)N)C(=O)N[C@@H](CCCN=C(N)N)C(=O)N[C@@H](C)C(N)=O unit_text=µM measured_value=31.2

Shift focus to the following entry.
Qu. Any idea what MIC came out for CC[C@H](C)[C@H](NC(=O)[C@@H](NC(=O)[C@H](CO)NC(=O)CN)C(C)C)C(=O)N[C@@H](CCCN=C(N)N)C(=O)N[C@@H](C)C(=O)N[C@@H](CC(C)C)C(=O)N[C@@H](CCSC)C(=O)N[C@@H](CCCN=C(N)N)C(=O)N[C@@H](CCSC)C(=O)N[C@@H](Cc1ccccc1)C(=O)N[C@@H](C)C(=O)N[C@@H](CCCN=C(N)N)C(=O)N[C@@H](CC(C)C)C(=O)N[C@H](C(=O)NCC(=O)O)C(C)C on Staphylococcus aureus ATCC 29213?
Ans. 36

###

Test system: Salmonella enterica subsp. enterica serovar Typhimurium C77-31
# Lookup of reported MIC keyed by entry
Please give a number only; it is taken to be in µM.

Qu. Any idea what MIC came out for CC(C)C[C@H](NC(=O)[C@H](CCCN=C(N)N)NC(=O)[C@H](Cc1c[nH]c2ccccc12)NC(=O)[C@H](CCCN=C(N)N)NC(=O)[C@H](CC(C)C)NC(=O)[C@H](CCCN=C(N)N)NC(=O)[C@H](Cc1c[nH]c2ccccc12)NC(=O)[C@H](CCCN=C(N)N)NC(=O)[C@H](CC(C)C)NC(=O)[C@H](CCCN=C(N)N)NC(=O)[C@@H](N)Cc1c[nH]c2ccccc12)C(=O)N[C@@H](CCCN=C(N)N)C(N)=O [WRLRWRLRWRLR] on Salmonella enterica subsp. enterica serovar Typhimurium C77-31?
Ans. 2

Qu. Any idea what MIC came out for CC(C)C[C@H](NC(=O)[C@H](CCCCN)NC(=O)[C@H](Cc1c[nH]c2ccccc12)NC(=O)[C@H](CCCCN)NC(=O)[C@H](CC(C)C)NC(=O)[C@H](CCCCN)NC(=O)[C@H](Cc1c[nH]c2ccccc12)NC(=O)[C@H](CCCCN)NC(=O)[C@H](CC(C)C)NC(=O)[C@H](CCCCN)NC(=O)[C@@H](N)Cc1c[nH]c2ccccc12)C(=O)N[C@@H](CCCCN)C(N)=O [WKLKWKLKWKLK] on Salmonella enterica subsp. enterica serovar Typhimurium C77-31?
Ans. 2

Qu. Any idea what MIC came out for CC(C)C[C@H](NC(=O)[C@H](CCCN=C(N)N)NC(=O)[C@H](Cc1c[nH]c2ccccc12)NC(=O)[C@H](CCCN=C(N)N)NC(=O)[C@@H](NC(=O)[C@H](CCCCN)NC(=O)[C@H](Cc1c[nH]c2ccccc12)NC(=O)[C@H](CCCN=C(N)N)NC(=O)[C@H](CC(C)C)NC(=O)[C@H](CCCN=C(N)N)NC(=O)[C@@H](N)Cc1c[nH]c2ccccc12)[C@@H](C)O)C(=O)N[C@@H](CCCCN)C(N)=O [WRLRWKTRWRLK] on Salmonella enterica subsp. enterica serovar Typhimurium C77-31?
Ans. 2

Qu. Any idea what MIC came out for CC[C@H](C)[C@H](NC(=O)[C@H](Cc1c[nH]c2ccccc12)NC(=O)[C@H](CCCCN)NC(=O)[C@H](CC(C)C)NC(=O)[C@@H](NC(=O)[C@H](CCCCN)NC(=O)CNC(=O)[C@@H](NC(=O)[C@H](CCCCN)NC(=O)[C@H](CCCCN)NC(=O)[C@H](CC(C)C)NC(=O)[C@H](CCCN=C(N)N)NC(=O)[C@H](CCCCN)NC(=O)[C@H](CCCN=C(N)N)NC(=O)[C@@H](N)[C@@H](C)O)[C@@H](C)CC)C(C)C)C(N)=O [TRKRLKKIGKVLKWI] on Salmonella enterica subsp. enterica serovar Typhimurium C77-31?
Ans. 8
